Tested on: HO-4980, human ovarian cancer cells
Test: MTT cytotoxicity assay, HO-4980 (HO-8910)
Format: cell-based
Settings: 72 h

>  <MOLECULE>
O=C(/C=C/c1ccc(O)cc1)c1ccc(O)c(CNC2CCCCC2)c1O [Compound 9]

>  <MEASURED ON>
HO-4980, human ovarian cancer cells

>  <UNITS>
µM

>  <QUALIFIER SYMBOL>
>

>  <IC50>
100

$$$$
>  <MOLECULE>
CCN(CC)Cc1c(O)ccc(C(=O)/C=C/c2ccc(O)cc2)c1O [Compound 11]

>  <MEASURED ON>
HO-4980, human ovarian cancer cells

>  <UNITS>
µM

>  <QUALIFIER SYMBOL>
=

>  <IC50>
97.3

$$$$
>  <MOLECULE>
O=C(/C=C/c1ccc(O)cc1)c1ccc(O)cc1O [ISL, isoliquiritigenin]

>  <MEASURED ON>
HO-4980, human ovarian cancer cells

>  <UNITS>
µM

>  <QUALIFIER SYMBOL>
=

>  <IC50>
58.4

$$$$
>  <MOLECULE>
O=C(/C=C/c1ccc(O)cc1)c1ccc(O)c(CN2CCCC2)c1O [Compound 16]

>  <MEASURED ON>
HO-4980, human ovarian cancer cells

>  <UNITS>
µM

>  <QUALIFIER SYMBOL>
=

>  <IC50>
74.9

$$$$
>  <MOLECULE>
O=C(/C=C/c1ccc(O)cc1)c1ccc(O)c(CN(CCO)CCO)c1O [Compound 15]

>  <MEASURED ON>
HO-4980, human ovarian cancer cells

>  <UNITS>
µM

>  <QUALIFIER SYMBOL>
=

>  <IC50>
37.9

$$$$
>  <MOLECULE>
CC(C)(C)NCc1c(O)ccc(C(=O)/C=C/c2ccc(O)cc2)c1O [Compound 13]

>  <MEASURED ON>
HO-4980, human ovarian cancer cells

>  <UNITS>
µM

>  <QUALIFIER SYMBOL>
>

>  <IC50>
100

$$$$

* * *

Tested on: HO-4980, human ovarian cancer cells
Experiment: MTT cytotoxicity assay, HO-4980 (HO-8910)
Format: cell-based
Details: 72 h
MEASURE NAME: IC50 (µM)

>  <MOLECULE>
O=C(/C=C/c1ccc(O)cc1)c1ccc(O)c(CN2CCOCC2)c1O

>  <MEASURE NAME>
IC50

>  <QUALIFIER SYMBOL>
=

>  <MEASURED>
96.4

$$$$
>  <MOLECULE>
CC(C)N(Cc1c(O)ccc(C(=O)/C=C/c2ccc(O)cc2)c1O)C(C)C

>  <MEASURE NAME>
IC50

>  <QUALIFIER SYMBOL>
=

>  <MEASURED>
98.1

$$$$
>  <MOLECULE>
CCC(C)NCc1c(O)ccc(C(=O)/C=C/c2ccc(O)cc2)c1O (centres unmarked)

>  <MEASURE NAME>
IC50

>  <QUALIFIER SYMBOL>
>

>  <MEASURED>
100

$$$$
>  <MOLECULE>
O=C(C=Cc1ccc(O)cc1)c1ccc(O)c(CNCCO)c1O

>  <MEASURE NAME>
IC50

>  <QUALIFIER SYMBOL>
=

>  <MEASURED>
89

$$$$
>  <MOLECULE>
CN(C)Cc1c(O)ccc(C(=O)/C=C/c2ccc(O)cc2)c1O

>  <MEASURE NAME>
IC50

>  <QUALIFIER SYMBOL>
>

>  <MEASURED>
100

$$$$
